# Test system: Staphylococcus aureus
# Assay remarks: Antibacterial activity against methicillin-susceptible Staphylococcus aureus by microdilution broth method
# Assay type: functional
# maps each entry to its MIC
Outcome measure: MIC (µg/mL)

| Compound | Result units | Value observed |
| --- | --- | --- |
| N#Cc1ccc(S(=O)(=O)N2CCN(c3ccc(N4C[C@H](Cn5ccnn5)OC4=O)cc3F)CC2)cc1 | µg/mL | 2 |
| O=C1O[C@@H](Cn2ccnn2)CN1c1ccc(N2CCNCC2)c(F)c1 | µg/mL | 1 |
| Cc1ccc(S(=O)(=O)N2CCN(c3ccc(N4C[C@H](Cn5ccnn5)OC4=O)cc3F)CC2)cc1 | µg/mL | 1 |
| O=C1O[C@@H](Cn2ccnn2)CN1c1ccc(N2CCN(S(=O)(=O)c3ccccc3)CC2)c(F)c1 | µg/mL | 1 |
| O=C1O[C@@H](Cn2ccnn2)CN1c1ccc(N2CCN(S(=O)(=O)c3cccc(C(F)(F)F)c3)CC2)c(F)c1 | µg/mL | 0.06 |
| CN[C@H](CC(C)C)C(=O)N[C@H]1C(=O)N[C@@H](CC(N)=O)C(=O)N[C@H]2C(=O)N[C@H]3C(=O)N[C@H](C(=O)N[C@H](C(=O)O)c4cc(O)cc(O)c4-c4cc3ccc4O)[C@H](O)c3ccc(c(Cl)c3)Oc3cc2cc(c3O[C@@H]2O[C@H](CO)[C@@H](O)[C@H](O)[C@H]2O[C@H]2C[C@](C)(N)[C@H](O)[C@H](C)O2)Oc2ccc(cc2Cl)[C@H]1O [VANCOMYCIN] | µg/mL | 0.25 |
| CC(=O)NC[C@H]1CN(c2ccc(N3CCOCC3)c(F)c2)C(=O)O1 [LINEZOLID] | µg/mL | 0.125 |

###

# Test system: Staphylococcus aureus
# Assay remarks: Antibacterial activity against methicillin-resistant Staphylococcus aureus by microdilution broth method
# Type: functional
Threshold-based label: MIC under 0.5 µg/mL gives MET, MIC not under 0.5 µg/mL gives NOT MET.

| Sample smiles | Assigned class |
| --- | --- |
| O=C1O[C@@H](Cn2ccnn2)CN1c1ccc(N2CCN(S(=O)(=O)c3cccc(C(F)(F)F)c3)CC2)c(F)c1 | MET |
| Nc1cccc(S(=O)(=O)N2CCN(c3ccc(N4C[C@H](Cn5ccnn5)OC4=O)cc3F)CC2)c1 | MET |
| O=C1O[C@@H](Cn2ccnn2)CN1c1ccc(N2CCN(S(=O)(=O)c3cccc([N+](=O)[O-])c3)CC2)c(F)c1 | MET |
| O=C1O[C@@H](Cn2ccnn2)CN1c1ccc(N2CCN(S(=O)(=O)c3ccccc3)CC2)c(F)c1 | NOT MET |
| O=C1O[C@@H](Cn2ccnn2)CN1c1ccc(N2CCN(S(=O)(=O)c3cccs3)CC2)c(F)c1 | NOT MET |
| CC(=O)NC[C@H]1CN(c2ccc(N3CCOCC3)c(F)c2)C(=O)O1 | NOT MET |
| O=C1O[C@@H](Cn2ccnn2)CN1c1ccc(N2CCN(S(=O)(=O)c3ccc(Br)cc3)CC2)c(F)c1 | NOT MET |

###

Listing: MIC of selected molecules
# System: Staphylococcus epidermidis
# Assay remarks: Antibacterial activity against methicillin-resistant Staphylococcus epidermidis by microdilution broth method
# Assay type: functional
Outcome measure: MIC (µg/mL)

| Sample smiles | Value observed |
| --- | --- |
| O=C1O[C@@H](Cn2ccnn2)CN1c1ccc(N2CCN(S(=O)(=O)c3ccc(C(F)(F)F)cc3)CC2)c(F)c1 | 1 |
| Nc1cccc(S(=O)(=O)N2CCN(c3ccc(N4C[C@H](Cn5ccnn5)OC4=O)cc3F)CC2)c1 | 1 |
| O=C1O[C@@H](Cn2ccnn2)CN1c1ccc(N2CCN(S(=O)(=O)c3ccccc3[N+](=O)[O-])CC2)c(F)c1 | 1 |
| Cc1ccc(S(=O)(=O)N2CCN(c3ccc(N4C[C@H](Cn5ccnn5)OC4=O)cc3F)CC2)cc1 | 2 |

Attribution: ChEMBL document CHEMBL1147903
